- Tested on: Serratia marcescens
- experiment notes: Minimum inhibitory concentration against Serratia marcescens
- Type: functional
result type: MIC

QUERY: State its MIC: N[C@H](CCl)C(=O)O
RESULT: 25 µg/mL

QUERY: Quote MIC reported for C#CC[C@H](NC(=O)[C@@H](N)CCl)C(=O)O.O=C(O)C(F)(F)F please.
RESULT: > 100 µg/mL

QUERY: Give recorded MIC. C#CC[C@H](N)C(=O)O
RESULT: > 100 µg/mL

QUERY: State its MIC for this compound: C#CCC(NC(=O)[C@H](C)N)C(=O)O.O=C(O)C(F)(F)F (stereo partly specified)
RESULT: > 100 µg/mL

QUERY: For the compound CSCC[C@H](N)C(=O)N[C@@H](CCl)C(=O)O.O=C(O)C(F)(F)F , give its measured MIC value.
RESULT: 50 µg/mL

QUERY: Provide MIC value for the following compound: C#CC[C@H](NC(=O)[C@H](C)N)C(=O)O.O=C(O)C(F)(F)F
RESULT: > 100 µg/mL

---

- System: Shigella flexneri
- experiment notes: Minimum inhibitory concentration against Shigella flexneri
- Assay type: functional
Where a SMILES comes first, the peptide text is derived from it. [ ]: non-standard residue; d: D form. Pra = C#CC[CH](N)C(=O)O
result type: MIC

The cases that follow already have their MIC on record.
{"compound": "C[C@H](NC(=O)[C@@H](N)CCl)C(=O)O.O=C(O)C(F)(F)F", "experimental system": "Shigella flexneri", "MIC": "> 100 µg/mL"}
{"compound": "C#CC[C@@H](NC(=O)[C@H](N)CCl)C(=O)O.O=C(O)C(F)(F)F", "experimental system": "Shigella flexneri", "MIC": "> 100 µg/mL"}
{"compound": "C#CCC(N)C(=O)N[C@@H](C)C(=O)O.O=C(O)C(F)(F)F (stereo not given in full)", "experimental system": "Shigella flexneri", "MIC": "> 100 µg/mL"}
{"compound": "CCC[C@H](N)C(=O)N[C@@H](CCl)C(=O)O.O=C(O)C(F)(F)F", "experimental system": "Shigella flexneri", "MIC": "> 100 µg/mL"}
{"compound": "C#CCC(N)C(=O)NC(CC#C)C(=O)O.O=C(O)C(F)(F)F (stereo not given) (H-[Pra]-[Pra]-OH; configuration not given here)", "experimental system": "Shigella flexneri", "MIC": "> 100 µg/mL"}

QUERY: Using known records, supply MIC for CSCC[C@H](N)C(=O)N[C@@H](CCl)C(=O)O.O=C(O)C(F)(F)F
RESULT: > 100 µg/mL

QUERY: Give recorded MIC. C#CC[C@@H](N)C(=O)O
RESULT: > 100 µg/mL

QUERY: Supply measured MIC of N[C@H](CCl)C(=O)O in your reply.
RESULT: 50 µg/mL

QUERY: Return MIC (reported value) for this compound: C#CC[C@H](N)C(=O)N[C@@H](C)C(=O)O.O=C(O)C(F)(F)F
RESULT: > 100 µg/mL

QUERY: Quick one: give measured MIC for C#CC[C@H](NC(=O)[C@@H](N)CC#C)C(=O)O.O=C(O)C(F)(F)F (H-[Pra]-[Pra]-OH)
RESULT: 12.5 µg/mL

QUERY: Specify measured MIC for C[C@@H](N)C(=O)N[C@H](C)C(=O)O.O=C(O)C(F)(F)F .
RESULT: > 100 µg/mL
